Target: adrenergic receptor α1A (Homo sapiens, UniProt P35348)
Sequence (P35348 1-466): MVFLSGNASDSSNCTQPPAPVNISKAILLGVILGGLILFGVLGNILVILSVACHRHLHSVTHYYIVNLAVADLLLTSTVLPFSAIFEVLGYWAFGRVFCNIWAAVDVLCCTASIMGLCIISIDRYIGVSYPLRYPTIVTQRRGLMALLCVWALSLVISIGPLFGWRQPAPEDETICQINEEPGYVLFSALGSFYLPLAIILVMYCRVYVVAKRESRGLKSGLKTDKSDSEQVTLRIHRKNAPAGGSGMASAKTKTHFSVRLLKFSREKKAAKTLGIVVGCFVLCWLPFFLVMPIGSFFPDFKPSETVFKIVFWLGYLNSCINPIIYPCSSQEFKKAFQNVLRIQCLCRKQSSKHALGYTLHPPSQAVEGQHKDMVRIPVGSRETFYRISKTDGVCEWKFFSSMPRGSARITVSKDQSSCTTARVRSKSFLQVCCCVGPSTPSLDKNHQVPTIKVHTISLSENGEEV
Endpoint: pKi
Give only the number. pKi is defined as minus log10 of concentration in molar units.

Qu. Specify reported pKi for the compound shown: COc1cccc(OC)c1OCCNCC1COc2ccccc2O1 (stereo not shown)
Ans. 9.52

* * *

Target: Potassium Channel hERG (human) (Homo sapiens, UniProt Q12809)
Construct: gene KCNH2
Sequence (Q12809 whole entry): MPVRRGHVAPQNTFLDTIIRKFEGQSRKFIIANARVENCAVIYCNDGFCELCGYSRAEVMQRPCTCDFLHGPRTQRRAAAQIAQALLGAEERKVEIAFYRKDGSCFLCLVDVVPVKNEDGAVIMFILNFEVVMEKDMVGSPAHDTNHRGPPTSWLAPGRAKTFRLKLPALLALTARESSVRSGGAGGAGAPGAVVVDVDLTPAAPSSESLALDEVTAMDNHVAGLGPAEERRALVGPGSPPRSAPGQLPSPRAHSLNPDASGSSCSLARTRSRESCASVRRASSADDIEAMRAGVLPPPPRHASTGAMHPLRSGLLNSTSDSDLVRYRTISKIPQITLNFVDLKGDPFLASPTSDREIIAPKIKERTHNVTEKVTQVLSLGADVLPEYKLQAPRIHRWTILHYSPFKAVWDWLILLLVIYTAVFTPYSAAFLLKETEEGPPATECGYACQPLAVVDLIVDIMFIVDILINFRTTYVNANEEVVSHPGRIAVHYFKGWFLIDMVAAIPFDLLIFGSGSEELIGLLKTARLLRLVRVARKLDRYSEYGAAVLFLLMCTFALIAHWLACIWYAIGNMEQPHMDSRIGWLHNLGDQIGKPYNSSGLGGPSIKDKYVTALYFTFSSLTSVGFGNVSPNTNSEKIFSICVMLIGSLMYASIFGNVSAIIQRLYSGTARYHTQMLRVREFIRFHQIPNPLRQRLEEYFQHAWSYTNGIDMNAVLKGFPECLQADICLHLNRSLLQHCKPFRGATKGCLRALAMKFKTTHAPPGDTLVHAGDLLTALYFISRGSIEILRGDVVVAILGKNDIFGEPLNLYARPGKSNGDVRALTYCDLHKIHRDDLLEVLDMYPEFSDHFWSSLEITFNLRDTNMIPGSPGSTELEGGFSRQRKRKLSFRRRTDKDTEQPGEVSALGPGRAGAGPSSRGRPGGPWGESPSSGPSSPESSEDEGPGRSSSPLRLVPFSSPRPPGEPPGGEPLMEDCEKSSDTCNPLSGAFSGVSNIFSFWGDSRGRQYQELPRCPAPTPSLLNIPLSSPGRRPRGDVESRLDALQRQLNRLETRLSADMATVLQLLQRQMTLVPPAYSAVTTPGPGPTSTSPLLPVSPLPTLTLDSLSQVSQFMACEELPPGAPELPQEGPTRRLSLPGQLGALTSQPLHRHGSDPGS
Protocol Details: in vitro
Design: Eurofins SafetyScreen44 radioligand displacement, inhibition of control specific binding
Cond: read-out: % Inhibition of Control Specific Binding, Mean
Endpoint: inhibition at 10 µM (%)
Provide only the numeric value, understood in %.

Qu. Look up and report measured inhibition at 10 µM for this entry: COCCN(CC1CCCN(Cc2ccccc2)C1)S(=O)(=O)c1ccc2ccccc2c1 (racemic)
Ans. 84.8

* * *

Target: M5(h) (Homo sapiens, UniProt P08912)
Sequence (P08912 whole entry): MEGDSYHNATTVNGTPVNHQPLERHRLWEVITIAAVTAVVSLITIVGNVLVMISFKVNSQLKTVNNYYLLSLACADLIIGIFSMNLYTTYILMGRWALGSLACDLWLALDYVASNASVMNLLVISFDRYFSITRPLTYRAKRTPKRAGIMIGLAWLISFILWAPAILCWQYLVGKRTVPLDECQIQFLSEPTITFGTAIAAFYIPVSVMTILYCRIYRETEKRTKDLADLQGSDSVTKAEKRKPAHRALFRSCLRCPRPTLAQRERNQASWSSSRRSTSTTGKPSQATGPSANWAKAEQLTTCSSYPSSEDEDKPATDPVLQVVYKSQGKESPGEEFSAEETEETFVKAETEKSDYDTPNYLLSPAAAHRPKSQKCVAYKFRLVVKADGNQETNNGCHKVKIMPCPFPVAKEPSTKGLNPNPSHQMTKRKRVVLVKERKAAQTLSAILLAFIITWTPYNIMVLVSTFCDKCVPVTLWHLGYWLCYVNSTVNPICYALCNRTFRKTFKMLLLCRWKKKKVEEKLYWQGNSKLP
Endpoint: Ki (nM)
Output spec: scalar in nM, unitless text.

Qu. Specify the recorded Ki for C[N+]1(C)CCC(OC(=O)C(c2ccccc2)c2ccccc2)CC1 , system: M5(h) (Homo sapiens, UniProt P08912).
Ans. 0.5

* * *

Target: µ-opioid receptor (Rattus norvegicus, UniProt P33535)
Sequence (P33535 whole entry): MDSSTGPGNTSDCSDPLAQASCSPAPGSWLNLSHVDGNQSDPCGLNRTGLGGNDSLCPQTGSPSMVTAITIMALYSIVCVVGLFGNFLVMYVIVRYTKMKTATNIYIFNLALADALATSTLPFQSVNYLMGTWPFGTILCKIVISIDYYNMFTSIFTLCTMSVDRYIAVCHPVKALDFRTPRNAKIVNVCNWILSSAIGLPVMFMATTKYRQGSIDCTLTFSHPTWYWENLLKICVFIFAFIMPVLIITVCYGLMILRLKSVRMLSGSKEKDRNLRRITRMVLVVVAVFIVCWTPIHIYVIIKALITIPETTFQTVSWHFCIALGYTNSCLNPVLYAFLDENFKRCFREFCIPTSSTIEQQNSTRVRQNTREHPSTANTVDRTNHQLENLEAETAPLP
Endpoint: Ki (nM)
Write it as a number; the unit nM goes unstated.

Qu. Identify measured Ki associated with COCCN(CC1CCCN(Cc2ccccc2)C1)S(=O)(=O)c1ccc2ccccc2c1 (racemic)
Ans. 1800

* * *

Target: adrenergic receptor α1A (Homo sapiens, UniProt P35348)
Endpoint: IC50 (nM)
Respond numerically; units are nM and should not be typed.

Qu. Hello, please tell me recorded IC50 for this one: COc1cccc(OC)c1OCCNCC1COc2ccccc2O1 (stereo not shown) [WB 4101]
Ans. 0.61
